- tgt: B1R receptor of the rat (rB1R) (Rattus norvegicus)
- Construct: expressed in transfected cells; host or cells: CHO K1 cells
- Sequence (P97583 1-337): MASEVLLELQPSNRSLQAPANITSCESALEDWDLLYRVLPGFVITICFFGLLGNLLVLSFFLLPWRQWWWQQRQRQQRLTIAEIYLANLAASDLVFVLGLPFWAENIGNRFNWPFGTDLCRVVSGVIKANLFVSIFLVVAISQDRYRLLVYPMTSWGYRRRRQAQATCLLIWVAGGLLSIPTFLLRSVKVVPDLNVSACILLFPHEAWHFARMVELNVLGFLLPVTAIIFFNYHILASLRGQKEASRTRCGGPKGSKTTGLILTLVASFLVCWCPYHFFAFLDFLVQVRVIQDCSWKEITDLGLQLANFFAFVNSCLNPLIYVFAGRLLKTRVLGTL
- test.summary: Functional investigation on the bradykinin receptor 1 (B1R), FLIPR Ca2+ assay, rB1R cells
- Format: cell-based
readout.kind: inhibition at 10 µM (%)
Numbers only, in %.

# compound, inhibition at 10 µM, %
records = [
    ("Cc1cccc(Cl)c1S(=O)(=O)N(C)Cc1nc2cccc(C(=O)N3CCC4(CC3)CCN(c3ccncc3)CC4)c2[nH]1 [I_CC-11]", 91),
    ("COc1cc(C)c(S(=O)(=O)N(Cc2nc3cccc(C(=O)N4CCC5(CC4)CCN(c4ccncc4)CC5)c3[nH]2)C2CC2)c(C)c1 [I_14]", 95),
    ("COc1cc(C)c(S(=O)(=O)N(C)Cc2nc3cccc(C(=O)N4CCC5(CCN(c6ccncc6)CC5)C4)c3[nH]2)c(C)c1 [I_09]", 104),
    ("COc1cc(C)c(S(=O)(=O)N2CCCC2c2nc3cccc(C(=O)N4CCC5(CC4)CCN(c4ccncc4)CC5)c3[nH]2)c(C)c1 (centres unmarked) [I_19]", 76),
    ("COc1cc(C)c(S(=O)(=O)N(C)C(C)c2nc3cccc(C(=O)N4CCC5(CCN(Cc6ccc(F)cc6Cl)CC5)CC4)c3[nH]2)c(C)c1 (centres unmarked) [I_CC-39]", 95),
]

Dear reader, for each entry below, please note its inhibition at 10 µM.
1. COc1cc(C)c(S(=O)(=O)N(C)Cc2nc3cccc(C(=O)N4CCC5(CCN(c6ccncc6)C5)C4)c3[nH]2)c(C)c1 (centres unmarked) [I_10]
2. COc1cc(C)c(S(=O)(=O)N(C)CCc2nc3ccc(C(=O)N4CCC5(CC4)CCN(c4ccncc4)CC5)cc3[nH]2)c(C)c1 [I_26]
3. O=C1c2c(Cl)cccc2CN1Cc1nc2cccc(C(=O)N3CCC4(CC3)CCN(c3ccncc3)CC4)c2[nH]1 [I_CC-12]
4. COc1cc(C)c(S(=O)(=O)N(C)c2nc3c(C(=O)N4CCC5(CC4)CCN(c4ccncc4)C5)cccc3s2)c(C)c1 [I_CC-21]
5. Cc1cc(S(=O)(=O)N(C)Cc2nc3cccc(C(=O)N4CCC5(CC4)CCN(c4ccncc4)C5)c3[nH]2)c(C)cc1Cl [I_CC-10]
6. COc1cc(C)c(S(=O)(=O)N(C)C(C)c2nc3cccc(C(=O)N4CCC5(CCN(C(=O)c6ccc(F)cc6Cl)CC5)CC4)c3[nH]2)c(C)c1 (centres unmarked) [I_CC-52]
7. COc1cc(C)c(S(=O)(=O)N(C)C(C)c2nc3cccc(C(=O)N4CCC5(CCN(Cc6csnn6)CC5)CC4)c3[nH]2)c(C)c1 (centres unmarked) [I_CC-38]
8. COc1cc(C)c(S(=O)(=O)N(C)C(C)c2nc3cccc(C(=O)N4CCC5(CCN(C(=O)c6ccc(C#N)cc6)CC5)CC4)c3[nH]2)c(C)c1 (centres unmarked) [I_CC-49]

104
103
101
65
88
93
97
87

Each recorded value in this set is attributed to patent US8232288B2.
